Assay: Drug level in rat brain at 5 mg/kg, po administered with imwittor/tween by electrospray mass spectrometry
Type: ADME, organism-based
Parameters: dose 5 mg/kg, route oral
resultType: AUC
I'd appreciate it if you included the unit after the number.

Exam item: Bench note: what AUC did O=S(=O)(c1ccccc1)c1ccc(/C=C/c2ccc(F)cc2F)cc1 show?
Marked response: 1.96 µM·h

---

Assay: Bioavailability in rhesus monkey
Format: ADME, organism-based, Macaca mulatta
Settings: in vivo
resultType: bioavailability (%)
Numbers only, in %.

Exam item: Bench note: what bioavailability did C[C@H](O)c1ccccc1S(=O)(=O)c1ccc(/C=C/c2ccc(F)cc2)cc1 show?
Marked response: 10
